Dear all, I have gathered published IC50 values for Cytochrome P450 3A4 (Homo sapiens, UniProt P08684); the list follows.

// assay Cytochrome P450 3A4 (Homo sapiens, UniProt P08684), entry C[C@@]1(c2cc(NC(=O)c3ncc(C#N)cc3F)ccc2F)C=COC(N)=N1 , IC50 value = > 20 µM

Form: item CO[C@H]1[C@@H](CF)OC(N)=N[C@]1(C)c1cc(NC(=O)c2ncc(Cl)cc2Cl)ccc1Cl ; test system Cytochrome P450 3A4 (Homo sapiens, UniProt P08684); IC50: ≥ 20 µM

O=C(Nc1ccc(C(F)(F)C(F)(F)F)cc1)c1cc(F)cnc1NCc1ccnc2[nH]ccc12 tested on Cytochrome P450 3A4 (Homo sapiens, UniProt P08684) gave IC50: > 20 µM

Observed IC50 on Cytochrome P450 3A4 (Homo sapiens, UniProt P08684), entry CC(C)C(O)(c1ccncn1)c1ccc2cc(OC(F)F)ccc2n1 (centres unmarked) , equals 30 µM

Considering Cc1nc2cc(NC(=O)c3cccnc3NCc3ccnc4c3CC(=O)N4)ccc2s1 , its IC50 with Cytochrome P450 3A4 (Homo sapiens, UniProt P08684) was recorded as > 20 µM

Lab entry: Cytochrome P450 3A4 (Homo sapiens, UniProt P08684) assay, molecule CC[C@@H](C#N)NC(=O)c1ccc(-c2nc(Nc3cnn(C4CCN(C)CC4)c3)ncc2C)cc1 , IC50 = > 50 µM

# lookup: COc1cnc(C(=O)Nc2cccc([C@@]3(C)N=C(N)S[C@H](C)[C@@H]3F)c2)cn1 on Cytochrome P450 3A4 (Homo sapiens, UniProt P08684), IC50 = ≥ 20 µM

Record C[C@@H](c1ccc(-c2cnc(C3CC3)nc2)cc1)N1CC[C@](CC(C)(C)O)(c2ccccc2)OC1=O has Cytochrome P450 3A4 (Homo sapiens, UniProt P08684) IC50 equal to 11.2 µM
